tested on: NCI-H322M lung; experiment: NCI-60 one-dose screen, 48 h (100 = growth as untreated, 0 = no growth, -100 = all killed); settings: 10 µM
The panel holds about 83,000 compounds, 20% with a hit somewhere; the sample as a whole holds those more often.
measured endpoint: growth (%)

molecule: CN(C)c1ccc(/C=C/c2nc3ccccc3c(=O)n2CC(=O)Nc2ccc(Cl)cc2)cc1
measured endpoint: growth
test value: 61.7
--
molecule: Cc1noc2c(Cc3ccccc3)nn(CC(=O)N/N=C/c3ccc(Br)cc3)c(=O)c12
measured endpoint: growth
test value: 102
--
molecule: COc1cc(NC(=O)c2cc(-c3ccc(F)cc3F)ccc2O)cc(OC)c1OC
measured endpoint: growth
test value: 38.4
--
molecule: O=C(c1ccc(Cl)cc1)C1[C@H](c2ccccc2Br)[C@@H](c2ccccc2)NC12C(=O)Nc1ccc(Br)cc12 (stereo not given in full)
measured endpoint: growth
test value: 41.6
--
molecule: Nc1nc2c(F)c(F)c(F)c(F)c2s1
measured endpoint: growth
test value: 103
